Reference source: ChEMBL document CHEMBL1135490

- target_of_assay: Mu-type opioid receptor (Homo sapiens, UniProt P35372)
- Sequence (P35372 whole entry): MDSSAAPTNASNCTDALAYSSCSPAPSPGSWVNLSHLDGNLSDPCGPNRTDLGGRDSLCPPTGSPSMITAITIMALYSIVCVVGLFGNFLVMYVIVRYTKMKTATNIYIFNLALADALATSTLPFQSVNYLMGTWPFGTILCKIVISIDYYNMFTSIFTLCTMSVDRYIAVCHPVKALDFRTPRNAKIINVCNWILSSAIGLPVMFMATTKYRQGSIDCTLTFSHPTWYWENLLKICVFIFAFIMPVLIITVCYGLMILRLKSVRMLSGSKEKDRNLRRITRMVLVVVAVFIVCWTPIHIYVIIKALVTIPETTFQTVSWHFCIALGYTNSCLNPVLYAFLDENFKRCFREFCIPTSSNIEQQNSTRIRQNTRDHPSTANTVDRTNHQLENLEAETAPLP
metric: Ki (pM)

molecule_smiles | target_of_assay | metric | value_reported
O=Cc1cc2ccc(C(=O)N[C@@H]3CC[C@@]4(O)C5Cc6ccc(O)c7c6[C@@]4(CCN5CC4CC4)[C@H]3O7)cc2cc1C=O | Mu-type opioid receptor (Homo sapiens, UniProt P35372) | Ki | 744
